- Tested on: HS 578T breast
- measurementNotes: NCI-60 one-dose screen, 48 h
- conditionNotes: 10 µM unless noted
About 83,000 compounds went through this panel and 20% of them were active in at least one assay; those are over-represented in the sample as a whole. Active and inactive are the calls of the source. How the source made its calls: active means growth percent below 10; inactive means the rest.
Result category, one only: 1 = active, 0 = inactive

Example entries begin here.
- COc1ccc(C(=O)NC(=O)Nc2cc3c(cc2F)/C(=C/c2[nH]c(C)c(CCC(=O)O)c2C)C(=O)N3)c(F)c1: 0
- CC12CCC3C4(C)COC(c5ccco5)OC4CCC3(C)C1CC(C1=CCOC1=O)O2 (stereo not given): 0
- C=C(C)[C@@H]1C[C@@H]2Cc3ccc(Cl)c(C)c3N1O2: 0
- COc1ccc2[nH]c(C(=O)OCc3ccc4c(Cl)cc(Cl)c(O)c4n3)cc2c1: 1

// outcome(item) with item = COc1ccc(Cn2cc3c(c2-c2cc(OC)c(OC)c(OC)c2)CCc2cnoc2-3)cc1
0
